B1: PRPH (parent)
chain: DEIEFLKKLHEEELRDLQVSVESQ

Variants of: B1
methodNotes: protein stability index of a GFP-peptide fusion (GPS, HEK-293T) (PSI 1-6); higher = more stable;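 also: lentivirally expressed fusions sorted by FACS into six bins by GFP to DsRed ratio, PSI derived from sequencing read proportions per bin multiplied by bin number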
experimentalParameters: c terminus: a fixed tail appended
measure: protein stability index
Just the number, please, no unit after it.

# mutation, measure, resultValue
records = [
    ("F5S", "protein stability index", 5.07),
    ("I3C", "protein stability index", 5.09),
    ("E2A", "protein stability index", 2.22),
    ("K8L", "protein stability index", 4.32),
    ("E11D", "protein stability index", 4.94),
]

Exercise: // query protein stability index value for entry D16V
Key: 4.34

Exercise: Which protein stability index is reported for this variant? S20G
Key: 4.29

Exercise: I'd like to know its protein stability index. The variant in question is Q24D
Key: 4.46
